# Tested on: Saccharomyces cerevisiae
# ASSAY: protein stability index of tFT-peptide fusion (C-terminal peptide) (PSI (0-1 scale)); higher = more stable (slower turnover)
# MEASUREMENT CONTEXT: genetic background: wild type; temperature: 30 C
Below, each entry is listed with its recorded protein stability index.
# respond with the number and nothing more

Example sequences with recorded protein stability index:
SSTPYRHLLTPH = 0.723
VLLRSRLLRRLS = 0.211
WGGGGGRKVSVG = 0.67
ITTLGSVSRDSR = 0.722
LSVFCALPFVAL = 0.703
GPSQLRLSSCSF = 0.716
RSLDEPCGFFRP = 0.637
TVPGTARGQRPP = 0.629
QSVSSTGQARLS = 0.682
GTVRSLLKWRCS = 0.326

Incoming: What value of protein stability index has been reported for the following sequence? CDVLNQTRKRHK
Outgoing: 0.703

Incoming: Reported protein stability index, sequence EEQKAKQKQEYG : ____
Outgoing: 0.639

###

Documented protein stability index across a set of sequences
# Test system: Saccharomyces cerevisiae
# ASSAY: protein stability index of tFT-peptide fusion (C-terminal peptide) (PSI (0-1 scale)); higher = more stable (slower turnover)
# MEASUREMENT CONTEXT: genetic background: wild type; temperature: 30 C

As a guide, the following entries are already answered.
PPPPPTPTPPYR = 0.695
TTSGCARLSHMV = 0.709
SPVSLPIPYTFL = 0.689

Incoming: // lookup protein stability index for WMTFKKLQCNRT
Outgoing: 0.682

###

This listing pairs sequences with measured protein stability index.
# Test system: Saccharomyces cerevisiae
# ASSAY: protein stability index of tFT-peptide fusion (C-terminal peptide) (PSI (0-1 scale)); higher = more stable (slower turnover)
# MEASUREMENT CONTEXT: genetic background: wild type; temperature: 37 C

VCLRICLVTLMM = 0.413
SWGEQDRLTGYI = 0.712
FPVWTALLTVRA = 0.22
RVGSSLIVVYCV = 0.427
WFIFTITSVAGL = 0.0325

Incoming: Query: protein stability index; subject: VRFLLSLCCALL
Outgoing: 0.596

Incoming: Entry under review: YLFFVCLHLKAG . Reported protein stability index?
Outgoing: 0.349

###

# Test system: Saccharomyces cerevisiae
# ASSAY: protein stability index of tFT-peptide fusion (C-terminal peptide) (PSI (0-1 scale)); higher = more stable (slower turnover)
# MEASUREMENT CONTEXT: genetic background: wild type; temperature: 30 C
QUANTITY MEASURED: protein stability index
Answer field: number only, no words.

Recorded results for 2 sequences are shown here.
LLSPFLPPPLFV = 0.563
QERWGRGWGTRG = 0.709

We next turn to a different sequence, shown below.
Incoming: Looking for the measured protein stability index of TLKRCFRWCRTT , can you help?
Outgoing: 0.176

###

Below is a list of entries, each paired with its recorded protein stability index value.
# System: Saccharomyces cerevisiae
# ASSAY: protein stability index of tFT-peptide fusion (C-terminal peptide) (PSI (0-1 scale)); higher = more stable (slower turnover)
# MEASUREMENT CONTEXT: genetic background: wild type; temperature: 30 C
Respond with the number and no other words.

The following sequences have reported results that may help.
LVYCWFAEYFLV = 0.169
PSFFLLRVFVPS = 0.524
RISPRVSARLCI = 0.616
RPFAPLPPPPSM = 0.689
KLNDTLKDRQNK = 0.67
TRDTLNLMYKRL = 0.703
PPLRPPPPLPVP = 0.663
AGAFRIVWWALR = 0.528
PPPPPPPRPSFP = 0.696
TYSCLKIVIPRT = 0.664

Incoming: Param item = ATSFSLLPACFS ; retrieve measured protein stability index.
Outgoing: 0.686

Incoming: // returns reported protein stability index for input KCVVMFFLRSVS
Outgoing: 0.5

Incoming: Which protein stability index is reported for this sequence? RGAVLLPSLWVV
Outgoing: 0.483

Incoming: If you can, please state the reported protein stability index value of GGAAAWAERCGG .
Outgoing: 0.726

Incoming: What protein stability index value was documented for this sequence, PSVSPVRLPYLL ?
Outgoing: 0.687

###

# System: Saccharomyces cerevisiae
# ASSAY: protein stability index of tFT-peptide fusion (C-terminal peptide) (PSI (0-1 scale)); higher = more stable (slower turnover)
# MEASUREMENT CONTEXT: genetic background: wild type; temperature: 30 C
QUANTITY MEASURED: protein stability index
Give the figure by itself; no unit, no explanation.

Incoming: Reported protein stability index for LLVMRRHRFLRL : what is it?
Outgoing: 0.624

###

Listed here are sequences together with their documented protein stability index.
# Test system: Saccharomyces cerevisiae
# ASSAY: protein stability index of tFT-peptide fusion (C-terminal peptide) (PSI (0-1 scale)); higher = more stable (slower turnover)
# MEASUREMENT CONTEXT: genetic background: wild type; temperature: 30 C

Worked examples, 8 sequences total:
SFLRVRSLISCS = 0.204
PFIPLLLAPALA = 0.307
TDSSWEVSLMVG = 0.619
ALFLLWVVMHDV = 0.219
DLQTVGLTRFIV = 0.193
IKRLKEVARHVS = 0.256
DAGSSYRFFRFI = 0.344
AFLLVLFCCVSC = 0.225

Incoming: Need protein stability index, item WVGWVVVLGCVG
Outgoing: 0.282

Incoming: Any idea what protein stability index was measured for PLFFGVQAFGGV ?
Outgoing: 0.679

Incoming: Can you share its protein stability index? I mean this sequence: VCLRICLVTLMM
Outgoing: 0.261

Incoming: Entry under review: FCSPFFFFLFRL . Reported protein stability index?
Outgoing: 0.315

Incoming: What does the record list as protein stability index for MRVYLVLWADSC ?
Outgoing: 0.184

Incoming: If you can, please state the reported protein stability index value of CRRQLKVLKSMS .
Outgoing: 0.151

Incoming: Suppose we examine the sequence SIFLCRLQNLLI ; what protein stability index value has been reported?
Outgoing: 0.209

Incoming: State the recorded protein stability index for this entry: GIGYMFLNVWLV
Outgoing: 0.0848

Incoming: Which protein stability index value is on record for VLLFGLAFFFSF ?
Outgoing: 0.241

Incoming: Query: protein stability index; subject: ALLWEFVPCSVR
Outgoing: 0.375

Incoming: Quick check: protein stability index of PLPCFVLRLPVF ?
Outgoing: 0.304

Incoming: Which value of protein stability index has been reported for LGSYVWVFVYFW in the records?
Outgoing: 0.151

Incoming: For the sequence WILIGVRFSCFG , what protein stability index is on record?
Outgoing: 0.165

Incoming: protein stability index for HPPPPPPPPSLS ?
Outgoing: 0.67

Incoming: Consider the sequence shown here: GLLAFVCISHTS What is its recorded protein stability index?
Outgoing: 0.344

Incoming: Would you mind telling me what protein stability index value was observed for LGGVEDRWRTAT ?
Outgoing: 0.296

Incoming: Record request: protein stability index value, item KRARVIWKLVVV
Outgoing: 0.287

Incoming: Find the recorded protein stability index belonging to VLFFCLVIYVGV and report it.
Outgoing: 0.187

###

# System: Saccharomyces cerevisiae
# ASSAY: protein stability index of tFT-peptide fusion (C-terminal peptide) (PSI (0-1 scale)); higher = more stable (slower turnover)
# MEASUREMENT CONTEXT: genetic background: das1 deletion; temperature: 37 C
Below is a list of entries, each paired with its recorded protein stability index value.

In the examples that follow, each entry is paired with its recorded protein stability index.
VVGVVVCWGCGW = 0.587
VSGSFRVCFRVW = 0.608

Incoming: What value of protein stability index has been recorded for this entry: GGIVLLVRVCGP
Outgoing: 0.615

###

Reported protein stability index values are given for each entry in this list.
# Test system: Saccharomyces cerevisiae
# ASSAY: protein stability index of tFT-peptide fusion (C-terminal peptide) (PSI (0-1 scale)); higher = more stable (slower turnover)
# MEASUREMENT CONTEXT: genetic background: wild type; temperature: 30 C
Give only the figure.

YILLGEFAGVFP = 0.689
CHRSSPPPPPPT = 0.711
PRTPPQQEPRRP = 0.709
GKGVFGGLFFLV = 0.294

Incoming: # protein stability index lookup, item PPPPPSPAPGIP
Outgoing: 0.66

###

# Tested on: Saccharomyces cerevisiae
# ASSAY: protein stability index of tFT-peptide fusion (C-terminal peptide) (PSI (0-1 scale)); higher = more stable (slower turnover)
# MEASUREMENT CONTEXT: genetic background: das1 deletion; temperature: 30 C
QUANTITY MEASURED: protein stability index
Provide a numeric answer; units are not to be included.

ISFDLCGKQNFQ [MTC7 C-terminal 12 aa] = 0.705
KKYKFKLKFIKN [RNY1 C-terminal 12 aa] = 0.712

The record that follows has no protein stability index shown yet.
Incoming: Fill in the blank: the reported protein stability index of IQISDVSMSPSL [PEX31 C-terminal 12 aa] is ____.
Outgoing: 0.681
